Test: Ratio of drug concentration in CD-1 mouse brain to plasma at 5 mg/kg, po measured after 1 hr
Assay type: ADME, organism-based
Provide the reported BPR of each item.
The response must contain the number and no unit.

Input: // lookup BPR for COc1nc(-c2csc(Nc3c4c(nn3C)CCC4)n2)ccc1-n1cnc(C)c1
Output: 0.22

Input: Also CCn1nc2c(c1Nc1nc(-c3ccc(-n4cnc(C)c4)c(OC)n3)cs1)CCCC2 ?
Output: 0.4

Input: Also CCn1nc(C2(C)CC2)cc1Nc1nc(-c2ccc(-n3cnc(C)c3)c(OC)n2)cs1 ?
Output: 0.57

Input: Also COc1nc(-c2csc(Nc3c4c(nn3CCF)CCCC4)n2)ccc1-n1cnc(C)c1 ?
Output: 0.68

Input: Also CCn1nc(C(F)(F)F)cc1Nc1nc(-c2ccc(-n3cnc(C)c3)c(OC)n2)cs1 ?
Output: 0.62

Input: Also CCn1nc2c(c1Nc1nc(-c3ccc(-n4cnc(C)c4)c(OC)n3)cs1)CCC2 ?
Output: 0.4

----------
Test: Metabolic stability in rat liver microsomes assessed as parent compound remaining at 1 uM incubated for 30 mins
Assay type: ADME, Microsome
Conditions: 0.5 h
Provide the reported Stabilty of each item.
// return numeric value only (unit: %, not printed)

Input: // lookup Stabilty for COc1nc(-c2csc(Nc3c4c(nn3C)CCCC4)n2)ccc1-n1cnc(C)c1
Output: 60

Input: Also COc1nc(-c2csc(Nc3c4c(nn3CCF)CCC4)n2)ccc1-n1cnc(C)c1 ?
Output: 68

Input: Also COc1nc(-c2csc(Nc3c4c(nn3CCO)CCCC4)n2)ccc1-n1cnc(C)c1 ?
Output: 78

Input: Also COc1nc(-c2csc(Nc3c4c(nn3C(C)C)CCCC4)n2)ccc1-n1cnc(C)c1 ?
Output: 64

Input: Also COc1nc(-c2csc(Nc3c4c(nn3CCN3CCOCC3)CCCC4)n2)ccc1-n1cnc(C)c1 ?
Output: 22

Input: Also COc1nc(-c2csc(Nc3c4c(nn3CCCN3CCOCC3)CCCC4)n2)ccc1-n1cnc(C)c1 ?
Output: 6.4

Input: Also COc1nc(-c2csc(Nc3c4c(nn3CC(F)(F)F)CCC4)n2)ccc1-n1cnc(C)c1 ?
Output: 72

Input: Also CCn1nc2c(c1Nc1nc(-c3ccc(-n4cnc(C)c4)c(OC)n3)cs1)CCCCC2 ?
Output: 41

Input: Also Cc1cn(-c2ccc(-c3csc(Nc4c5c(nn4C)CCCC5)n3)cc2)cn1 ?
Output: 56

Input: Also COc1nc(-c2csc(Nc3c4c(nn3C(C)(C)C)CCCC4)n2)ccc1-n1cnc(C)c1 ?
Output: 63

Input: Also CCn1nc(C(C)(C)C)cc1Nc1nc(-c2ccc(-n3cnc(C)c3)nc2)cs1 ?
Output: 60

Input: Also COc1nc(-c2csc(Nc3c4c(nn3CCCO)CCCC4)n2)ccc1-n1cnc(C)c1 ?
Output: 52

Input: Also COc1nc(-c2csc(Nc3c4c(nn3CC(C)(C)O)CCCC4)n2)ccc1-n1cnc(C)c1 ?
Output: 57

Input: Also COc1cc(-c2csc(Nc3cc(C(C)(C)C)nn3C)n2)ccc1-n1cnc(C)c1 ?
Output: 76

Input: Also COc1nc(-c2csc(Nc3c4c(nn3CCO)CCC4)n2)ccc1-n1cnc(C)c1 ?
Output: 86

----------
Test: AUC infinity in CD-1 mouse at 5 mg/kg, po administered as single dose measured up to 24 hrs
Assay type: ADME, organism-based
Parameters: route oral, dose 5 mg/kg, time <=24
Conditions: in vivo
measured.property: AUC
Record the result as a number with its unit.

Input: // lookup AUC for CCn1nc2c(c1Nc1nc(-c3ccc(-n4cnc(C)c4)c(OC)n3)cs1)CCCC2
Output: 1243 ng·h/mL

Input: Also CCn1nc(C(F)(F)F)cc1Nc1nc(-c2ccc(-n3cnc(C)c3)c(OC)n2)cs1 ?
Output: 2369 ng·h/mL

Input: Also CCn1nc2c(c1Nc1nc(-c3ccc(-n4cnc(C)c4)c(OC)n3)cs1)CCC2 ?
Output: 1257 ng·h/mL

Input: Also COc1nc(-c2csc(Nc3c4c(nn3CCF)CCCC4)n2)ccc1-n1cnc(C)c1 ?
Output: 669 ng·h/mL

Hello, the source for this data is ChEMBL document CHEMBL4699542, in case you need it.
